Values compiled from patent US20190248848A1.

Test Target: biotinylated histone H3 peptide trimethylated at lysine 27, H3K27me3 (21-44) (UniProt P68431 22-45, trimethyl-lysine at K27; biotinylated)
Assay Protocol: peptide microspot array; apparent Kd; 50 uM H3K27me3; replicate 2
Attribute Measured: Kd (µM)

PcTF, monovalent Polycomb-based transcription factor (pET28 construct, purified from E. coli) (designed binder) MELSAVGERVFAAEALLKRRIRKGRMEYLVKWKGWSQKYSTWEPEENILDARLLAAFEERER; 7.73
